Please respond with reported SH2 binding enrichment for every item in the list.
# experimental_system: SHP2-C SH2;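 also: peptide library displayed on the E. coli surface as eCPX fusions, selected cells deep-sequenced, score is each peptide's frequency after selection divided by its frequency in the input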
# assay_remarks: SH2 binding enrichment of the phosphorylated peptide, bacterial display (enrichment ratio); higher = better substrate or ligand; peptides without Tyr show the background

In the examples that follow, each entry is paired with its recorded SH2 binding enrichment.
>  <sequence_record>
MMVGAYSTLEG [ECPAS_Y470]

>  <value_reported>
1.44

$$$$
>  <sequence_record>
TGHKGYVAFLE [CARD9_Y76]

>  <value_reported>
0.81

$$$$
>  <sequence_record>
VVKTVYSLQPP [KNSTRN_Y87]

>  <value_reported>
1.03

$$$$
>  <sequence_record>
IVAREYFSKAD [CAMK2B_Y107_E110K_YF]

>  <value_reported>
0.604

$$$$
>  <sequence_record>
SLALFYRKVYH [RBL1_Y792]

>  <value_reported>
0.795

$$$$
>  <sequence_record>
LYEDRYLLGTS [ASS1_Y87]

>  <value_reported>
1.05

$$$$

Hey, can you go through the list below and give me SH2 binding enrichment for every item?
1. TLQIMYGCDVG [HLA-A_Y123_I119L]
2. DIPIRYSITGV [CDH4_Y205]
3. EQLLDYTRTVQ [INPP5E_Y439_R435Q]
4. PVQAAYQKVVA [HBB_Y131]
5. CTTLHYNYMCN [TP53_Y234_I232L]

Reply text:
[0.577, 0.972, 0.732, 0.516, 2.06]

* * *

# experimental_system: Jak2 (UniProt O60674)
# Sequence (O60674 whole entry, looked up): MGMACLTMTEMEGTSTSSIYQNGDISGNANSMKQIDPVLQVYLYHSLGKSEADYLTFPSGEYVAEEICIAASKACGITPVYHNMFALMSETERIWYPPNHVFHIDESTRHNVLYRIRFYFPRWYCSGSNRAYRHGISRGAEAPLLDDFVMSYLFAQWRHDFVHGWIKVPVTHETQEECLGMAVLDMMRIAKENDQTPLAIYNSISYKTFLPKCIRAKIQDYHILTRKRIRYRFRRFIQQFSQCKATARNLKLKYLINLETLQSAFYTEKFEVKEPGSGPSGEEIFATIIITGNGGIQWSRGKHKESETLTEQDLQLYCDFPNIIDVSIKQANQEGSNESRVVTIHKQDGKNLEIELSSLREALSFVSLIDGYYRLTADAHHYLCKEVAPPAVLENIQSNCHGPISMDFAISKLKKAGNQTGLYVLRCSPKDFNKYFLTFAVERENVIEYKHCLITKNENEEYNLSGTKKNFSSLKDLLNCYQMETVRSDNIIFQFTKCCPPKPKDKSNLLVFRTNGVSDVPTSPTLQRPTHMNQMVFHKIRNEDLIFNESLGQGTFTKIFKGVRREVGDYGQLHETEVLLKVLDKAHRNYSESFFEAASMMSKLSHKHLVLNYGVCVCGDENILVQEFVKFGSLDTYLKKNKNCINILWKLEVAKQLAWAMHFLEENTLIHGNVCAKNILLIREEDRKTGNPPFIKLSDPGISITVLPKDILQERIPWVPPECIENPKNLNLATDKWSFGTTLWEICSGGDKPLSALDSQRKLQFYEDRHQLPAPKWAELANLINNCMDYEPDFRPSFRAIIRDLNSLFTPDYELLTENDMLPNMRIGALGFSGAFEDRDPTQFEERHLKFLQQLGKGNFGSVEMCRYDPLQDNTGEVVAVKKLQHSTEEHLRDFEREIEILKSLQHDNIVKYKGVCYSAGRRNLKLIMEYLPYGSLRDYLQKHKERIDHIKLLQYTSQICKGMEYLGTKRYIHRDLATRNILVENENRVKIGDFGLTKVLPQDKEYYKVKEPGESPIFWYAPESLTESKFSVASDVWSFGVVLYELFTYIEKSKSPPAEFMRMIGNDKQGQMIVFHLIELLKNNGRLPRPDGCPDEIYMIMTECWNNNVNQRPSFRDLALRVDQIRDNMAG
# assay_remarks: phosphorylation enrichment, bacterial display (enrichment ratio); higher = better substrate or ligand; peptides without Tyr show the background
Please map values of phosphorylation enrichment to classes as shown: low band = under 0.7, middle band = from 0.7 up to 1, high band = 1 and over

The following sequences have reported results that may help.
>  <sequence_record>
DAKTIYDFTDT [PDK1_Y136_A134T]

>  <category_label>
middle band

$$$$
>  <sequence_record>
KNEVFYQCPDQ [FBXO3_Y223]

>  <category_label>
middle band

$$$$
>  <sequence_record>
VVKLAYNENDN [CAMKK2_Y183]

>  <category_label>
low band

$$$$
>  <sequence_record>
MEKEKYVSYIS [JMJD1C_Y596]

>  <category_label>
middle band

$$$$
>  <sequence_record>
VTPSEYLEIVR [TMEM130_Y412_E407V]

>  <category_label>
middle band

$$$$

Inquiry: Lab note: which band did FQKDVYDIPPS [NEDD9_Y177_YF] land in?
Reply text: low band

Inquiry: Entry NRNVRYLTLDI [AKR1C2_Y305] belongs to which category?
Reply text: middle band

Inquiry: Which band does TSIGNYFKPWF [DHCR24_Y299_N294T_YF] fall in?
Reply text: high band

Inquiry: Classify this sequence: DEDEEYEFMNR [ERBB3_Y1197_YF]
Reply text: middle band

Inquiry: Band for TSEASYFKSLN [NGEF_Y288_YF] ?
Reply text: low band

Inquiry: Field: class (phosphorylation enrichment) — entry: YRVDCYKNFVA [FHL1_Y213_C209R]
Reply text: middle band

Inquiry: # bin label for STSKTYVISQT [RBBP6_Y87_R91Q]
Reply text: low band

Inquiry: Into which bin does this sequence go? AALSAYAPQRP [PTPRN2_Y249_A251P]
Reply text: middle band

Inquiry: Please classify: FSEVRYVKEPF [HIPK4_Y170_YF]
Reply text: low band

Inquiry: Which class does SKNFTYIWWLN [PSG4_Y271_YF] fall in?
Reply text: high band
